The reported numbers originate from patent US20240317847A1.

testSystem: T1, murine IL-11 (mouse, UniProt P47873 22-199)
T1 sequence: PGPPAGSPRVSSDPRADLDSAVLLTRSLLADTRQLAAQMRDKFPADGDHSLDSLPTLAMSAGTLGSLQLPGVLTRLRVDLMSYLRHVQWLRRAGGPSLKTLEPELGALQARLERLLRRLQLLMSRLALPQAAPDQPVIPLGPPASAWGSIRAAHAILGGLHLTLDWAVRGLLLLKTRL
experiment: cell-based or functional assay
Answer each item with its documented IC50, RGA 1.
Give bare numbers, in nM.

For orientation, consider the following solved cases.
TPP-31309 (antibody, IgG4, V domains shown) VH: EVQLLESGGGLVQPGGSLRLSCAASGFTFSHYDMNWLRQAPGKGLEWVGVISYDSSNKFYADFVKGRFTISRDNSKNTLYLQMNSLRAEDTAVYYCARTPGSHFDYWGQGTLVTVSS VL: QSVLTQPPSASGTPGQRVTISCSGSSSNIGNNAVNWYQQLPGTAPKLLIYYDDLLPSGVPDRFSGSKSGTSASLAISGLRSEDEADYYCSAWDDSLQGVVFGGGTKLTVL | 108
TPP-31288 (antibody, IgG4, V domains shown) VH: EVQLLESGGGVVQPGGSLRLSCAASGFTFSHYDMNWLRQAPGKGLEWVGVISYDGSNKFYADFVKGRFTISRDNSKNTLYLQMNSLRAEDTAVYYCARTPGSHFDYWGQGTLVTVSS VL: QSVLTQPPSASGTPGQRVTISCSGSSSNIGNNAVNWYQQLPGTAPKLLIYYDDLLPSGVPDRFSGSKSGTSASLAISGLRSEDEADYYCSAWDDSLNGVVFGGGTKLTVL | 47
TPP-31295 (antibody, IgG4, V domains shown) VH: EVQLLESGGGLVQPGGSLRLSCAASGFTFSHYDMNWLRQAPGKGLEWVGVISYDGSNKYYADFVKGRFTISRDNSKNTLYLQMNSLRAEDTAVYYCARTPGSHFDYWGQGTLVTVSS VL: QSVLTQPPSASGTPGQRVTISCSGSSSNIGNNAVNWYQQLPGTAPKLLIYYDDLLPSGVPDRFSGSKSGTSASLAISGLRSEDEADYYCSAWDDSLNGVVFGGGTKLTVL | 60
TPP-31306 (antibody, IgG4, V domains shown) VH: EVQLLESGGGLVQPGGSLRLSCAASGFTFSHYDMNWLRQAPGKGLEWVGVISYDASNKFYADFVKGRFTISRDNSKNTLYLQMNSLRAEDTAVYYCARTPGSHFDYWGQGTLVTVSS VL: QSVLTQPPSASGTPGQRVTISCSGSSSNIGNNAVNWYQQLPGTAPKLLIYYDDLLPSGVPDRFSGSKSGTSASLAISGLRSEDEADYYCSAWDDSLSGVVFGGGTKLTVL | 57

Quick batch: IC50, RGA 1 for everything below.
1. TPP-31305 (antibody, IgG4, V domains shown) VH: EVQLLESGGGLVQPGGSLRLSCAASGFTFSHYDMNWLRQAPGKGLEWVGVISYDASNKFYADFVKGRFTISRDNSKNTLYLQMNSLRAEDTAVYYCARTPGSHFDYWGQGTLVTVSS VL: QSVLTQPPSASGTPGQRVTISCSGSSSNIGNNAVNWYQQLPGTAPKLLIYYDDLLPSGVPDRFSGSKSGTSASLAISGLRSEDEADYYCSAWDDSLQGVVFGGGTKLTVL
2. TPP-31296 (antibody, IgG4, V domains shown, hIgG4 SPLE, lambda) VH: EVQLLESGGGLVQPGGSLRLSCAASGFTFSHYDMNWLRQAPGKGLEWVGVISYDGSNKFYADSVKGRFTISRDNSKNTLYLQMNSLRAEDTAVYYCARTPGSHFDYWGQGTLVTVSS VL: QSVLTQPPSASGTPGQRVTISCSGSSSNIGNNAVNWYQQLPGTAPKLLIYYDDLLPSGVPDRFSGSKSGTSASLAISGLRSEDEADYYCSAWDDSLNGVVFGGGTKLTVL

Out:
30
20
